Below, each entry is listed alongside its reported cytotoxicity at 70.5 h.
ASSAY_NOTES: Human HepG2 cell viability assay in 384 well format
Type: toxicity, cell-based
Set-up: dose 125 nL, time 70.5 hour; concentration not given beside the values
MEASUREMENT_PARAMETERS: HepG2 cells, read-out: Inhibition
Write the value in % as a bare number.

COMPOUND	cytotoxicity at 70.5 h [%]
COCCNC(=O)Cn1c(-c2ccc(F)cc2)nc(C)c(CCO)c1=O	-2.18
Cn1cccc1C(=O)N1CCN(Cc2cccnc2)c2ncccc2C1	-8.24
CCC(C)NC(=O)CCn1ccc(C)n1 (stereo not drawn)	-6.22
CC(=O)Nn1c(C)cc(CN2CCCN(Cc3ccncc3)CC2)c1C	-0.666
C1CCC(c2nnc3sc(C4CCOC4)nn23)C1 (stereo not drawn)	-13.4

Shifting focus to the compound that follows.
Q: Tell me the measured cytotoxicity at 70.5 h of OC(CN1CCN(Cc2cc(F)ccc2F)CC1)C1CC1 (stereo not drawn) , please.
Ans: 0.724

----------
Below, each entry is listed alongside its reported cytotoxicity at 70.5 h.
ASSAY_NOTES: Human HepG2 cell viability assay in 384 well format
Format: toxicity, cell-based
Set-up: dose 125 nL, time 70.5 hour; concentration not given beside the values
MEASUREMENT_PARAMETERS: HepG2 cells, read-out: Inhibition
Write the value in % as a bare number.

MOLECULE	cytotoxicity at 70.5 h (%)
COc1ncccc1C(=O)N1CCC(Nc2ccc(C)nn2)CC1	-4.22
Cn1ccc(C(=O)NC2CCC23CCN(C(=O)c2cnccn2)CC3)c1 (stereo unspecified)	-7.61
O=C(Cc1ccn[nH]1)Nc1cncc(Br)c1O	-2.7

Q: Tell me the measured cytotoxicity at 70.5 h of Cc1ccoc1C(=O)N1CCO[C@H]2[C@H](OCc3ccncc3)CC[C@@H]21 , please.
Ans: -0.105

Q: Tell me the measured cytotoxicity at 70.5 h of CC(C)c1nc(CN(C)C2CCN(CCc3ccncc3)C2)no1 (stereo unspecified) , please.
Ans: -2.44

Q: Tell me the measured cytotoxicity at 70.5 h of Cc1noc(C)c1-c1cccc(C2CCNCC2)n1 , please.
Ans: 7.5

----------
ASSAY_NOTES: Human HepG2 cell viability assay in 384 well format
Type: toxicity, cell-based
Parameters: dose 125 nL, time 70.5 hour; concentration not given beside the values
MEASUREMENT_PARAMETERS: HepG2 cells, read-out: Inhibition
Below, each entry is listed alongside its reported cytotoxicity at 70.5 h.
Write the value in % as a bare number.

Examples from the recorded data:
COMPOUND	ENDPOINT_RESULT
CCc1nc2n(n1)CC(NCc1cc(OC)c3c(c1)OCCO3)CC2 (stereo unspecified)	-5.82
CCCNC(=O)C1CCN(Cc2csc(C(C)C)n2)CC1	16.4
Cn1ccnc1SCc1nc(C(C)(C)NC(=O)OC(C)(C)C)no1	12
NC(=O)CN1C[C@@H](c2ccccc2F)[C@@]2(CCCCC(=O)N2)C1	-7.09
CC(C)N1CCC2(C=C(C(=O)N(C)C)c3ccccc32)CC1	-16.2

Shifting focus to the compound that follows.
Q: Tell me the measured cytotoxicity at 70.5 h of CCC(CO)NC(=O)Cc1ccc(NC(=O)CC2=CCCCC2)cc1 (stereo unspecified) , please.
Ans: -3.34

----------
ASSAY_NOTES: Human HepG2 cell viability assay in 384 well format
Format: toxicity, cell-based
Parameters: dose 125 nL, time 70.5 hour; concentration not given beside the values
MEASUREMENT_PARAMETERS: HepG2 cells, read-out: Inhibition
Below, each entry is listed alongside its reported cytotoxicity at 70.5 h.

MOLECULE	cytotoxicity at 70.5 h
Cc1nc(CN2C(=O)CC[C@@H]3[C@H]2CCN3C(=O)C2CCCO2)cs1 (stereo partly specified)	-8.01%
CCC1(C(=O)O)CCCN(CCOCc2ccccc2)C1 (stereo unspecified)	-9.39%
CC1(C)CNC(=O)c2nc(C3CCN(C(=O)C4CC4)CC3)[nH]c2C1	-11%
CC1=N[C@@]2(CC[C@@H]3CN(CC(=O)N(C)C)C[C@@H]32)C(=O)N1CC(C)C	52.3%
Cn1ccc(C(=O)N2CCN(c3ccccn3)CC2)cc1=O	-1.81%
COCc1cccc(NC(=O)NCc2ncc(C)c(OC)c2C)c1	0.253%

Q: Tell me the measured cytotoxicity at 70.5 h of COc1ccc(CN(C)Cc2c(C)noc2C)c(Cl)c1OC , please.
Ans: -8.81%

Q: Tell me the measured cytotoxicity at 70.5 h of CCS(=O)(=O)N1CCC(c2nc3ccc(-c4ccccc4)cn3n2)CC1 , please.
Ans: -5.21%

Q: Tell me the measured cytotoxicity at 70.5 h of Cc1noc(C)c1CN1CCn2nc(CCC(=O)N3CCCC3)cc2C1 , please.
Ans: -2.3%

Q: Tell me the measured cytotoxicity at 70.5 h of CCCc1n[nH]c(C2CN(C(=O)c3ccco3)CCO2)n1 (stereo unspecified) , please.
Ans: -10.8%

Q: Tell me the measured cytotoxicity at 70.5 h of CCCc1cc(C(=O)NC(c2ccccc2)c2n[nH]c(C)n2)[nH]n1 (stereo unspecified) , please.
Ans: -7.51%

----------
Below, each entry is listed alongside its reported cytotoxicity at 70.5 h.
ASSAY_NOTES: Human HepG2 cell viability assay in 384 well format
Assay type: toxicity, cell-based
Design: dose 125 nL, time 70.5 hour; concentration not given beside the values
MEASUREMENT_PARAMETERS: HepG2 cells, read-out: Inhibition
Write the value in % as a bare number.

Examples from the recorded data:
COMPOUND	ENDPOINT_RESULT
CC(C)(C)c1cc(NC(=O)CN2CCC(N3CCNC3=O)CC2)on1	17
O=C(NCC(c1ccc(F)cc1)N1CCOCC1)Nc1cn[nH]c1 (configuration not stated)	18.9
O=C(c1ccccc1)N1CCS(=O)(=O)[C@@H]2CCNCC[C@@H]21	3.07

Q: Tell me the measured cytotoxicity at 70.5 h of O=C(c1n[nH]cc1Cl)N1CCOCC1 , please.
Ans: -6.1

Q: Tell me the measured cytotoxicity at 70.5 h of CC(C)(C)NC(=O)CNc1ncc(Br)cn1 , please.
Ans: 0.722

----------
ASSAY_NOTES: Human HepG2 cell viability assay in 384 well format
Type: toxicity, cell-based
Design: dose 125 nL, time 70.5 hour; concentration not given beside the values
MEASUREMENT_PARAMETERS: HepG2 cells, read-out: Inhibition
MEASURED_ENDPOINT: cytotoxicity at 70.5 h (%)
Write the value in % as a bare number.

Examples from the recorded data:
COMPOUND	READING_UNIT	ENDPOINT_RESULT
Cn1nc(Cl)cc1C(=O)N1CCC(C(=O)c2nc3ccccc3s2)CC1	%	10.5
Nc1nnc(SCC(=O)NCC(O)c2ccccc2)s1 (configuration not stated)	%	18.6
O=C(NCc1cccnc1)N1CCn2c(Cn3cccn3)cnc2C1	%	-0.141

Q: Tell me the measured cytotoxicity at 70.5 h of Cc1noc(C)c1CN1CCc2c(CNc3nccs3)n[nH]c2C1 , please.
Ans: -12.5

Q: Tell me the measured cytotoxicity at 70.5 h of c1cnnc(N2CCCC2CNCCc2cccs2)c1 (configuration not stated) , please.
Ans: -7.61

Q: Tell me the measured cytotoxicity at 70.5 h of CCn1nc(C)c(CN(C)S(=O)(=O)c2cnn(C)c2)c1C , please.
Ans: -5.84

Q: Tell me the measured cytotoxicity at 70.5 h of CN(CC(=O)NC(C)(C)C)C(=O)c1cccn1CCc1ccccc1 , please.
Ans: 5.51

Q: Tell me the measured cytotoxicity at 70.5 h of CC(C)c1nc(C2CCCN2C(=O)CCn2cncn2)no1 (configuration not stated) , please.
Ans: -7.37

----------
ASSAY_NOTES: Human HepG2 cell viability assay in 384 well format
Type: toxicity, cell-based
Set-up: dose 125 nL, time 70.5 hour; concentration not given beside the values
MEASUREMENT_PARAMETERS: HepG2 cells, read-out: Inhibition
MEASURED_ENDPOINT: cytotoxicity at 70.5 h (%)
Write the value in % as a bare number.

Examples from the recorded data:
COMPOUND	MEASURED_ENDPOINT	READING_UNIT	ENDPOINT_RESULT
CCn1ncc2c1C(COC)CN(c1ncc(F)cn1)C2 (stereo unspecified)	cytotoxicity at 70.5 h	%	-9.93
O=C(CCc1ccco1)NS(=O)(=O)Cc1ccon1	cytotoxicity at 70.5 h	%	-3.83
Cc1noc(C)c1CN1CC[C@H]2OCC[C@@]2(C(=O)N2CCCC2)C1	cytotoxicity at 70.5 h	%	-5.9

Q: Tell me the measured cytotoxicity at 70.5 h of CC(C)N1CCC(CC(=O)NC[C@H]2CCc3ccccc3O2)CC1 , please.
Ans: -11.9

Q: Tell me the measured cytotoxicity at 70.5 h of Cc1nn(CC(=O)N2CCN(Cc3cnn(C)c3C)CC2)cc1Br , please.
Ans: 29.4

Q: Tell me the measured cytotoxicity at 70.5 h of Cc1cc(N2CCN(C(=O)c3cc(Cl)c[nH]3)CC2)nc(C)n1 , please.
Ans: -4.7

Q: Tell me the measured cytotoxicity at 70.5 h of Cc1cccc(Cc2nc3c([nH]2)CCCNC3=O)c1 , please.
Ans: -5.33

Q: Tell me the measured cytotoxicity at 70.5 h of Cc1ccc(CC(=O)N2CCCC(c3n[nH]c4nccnc34)C2)cc1 (stereo unspecified) , please.
Ans: -1.21

Recorded values, source ChEMBL document CHEMBL3507680.
